target: ΔF508-CFTR (Homo sapiens, UniProt P13569, DEL508-508)
Construct: host or cells: CFBE41o-, doxycycline-inducible
Sequence (P13569 with tags, fused parts or gaps DEL508-508): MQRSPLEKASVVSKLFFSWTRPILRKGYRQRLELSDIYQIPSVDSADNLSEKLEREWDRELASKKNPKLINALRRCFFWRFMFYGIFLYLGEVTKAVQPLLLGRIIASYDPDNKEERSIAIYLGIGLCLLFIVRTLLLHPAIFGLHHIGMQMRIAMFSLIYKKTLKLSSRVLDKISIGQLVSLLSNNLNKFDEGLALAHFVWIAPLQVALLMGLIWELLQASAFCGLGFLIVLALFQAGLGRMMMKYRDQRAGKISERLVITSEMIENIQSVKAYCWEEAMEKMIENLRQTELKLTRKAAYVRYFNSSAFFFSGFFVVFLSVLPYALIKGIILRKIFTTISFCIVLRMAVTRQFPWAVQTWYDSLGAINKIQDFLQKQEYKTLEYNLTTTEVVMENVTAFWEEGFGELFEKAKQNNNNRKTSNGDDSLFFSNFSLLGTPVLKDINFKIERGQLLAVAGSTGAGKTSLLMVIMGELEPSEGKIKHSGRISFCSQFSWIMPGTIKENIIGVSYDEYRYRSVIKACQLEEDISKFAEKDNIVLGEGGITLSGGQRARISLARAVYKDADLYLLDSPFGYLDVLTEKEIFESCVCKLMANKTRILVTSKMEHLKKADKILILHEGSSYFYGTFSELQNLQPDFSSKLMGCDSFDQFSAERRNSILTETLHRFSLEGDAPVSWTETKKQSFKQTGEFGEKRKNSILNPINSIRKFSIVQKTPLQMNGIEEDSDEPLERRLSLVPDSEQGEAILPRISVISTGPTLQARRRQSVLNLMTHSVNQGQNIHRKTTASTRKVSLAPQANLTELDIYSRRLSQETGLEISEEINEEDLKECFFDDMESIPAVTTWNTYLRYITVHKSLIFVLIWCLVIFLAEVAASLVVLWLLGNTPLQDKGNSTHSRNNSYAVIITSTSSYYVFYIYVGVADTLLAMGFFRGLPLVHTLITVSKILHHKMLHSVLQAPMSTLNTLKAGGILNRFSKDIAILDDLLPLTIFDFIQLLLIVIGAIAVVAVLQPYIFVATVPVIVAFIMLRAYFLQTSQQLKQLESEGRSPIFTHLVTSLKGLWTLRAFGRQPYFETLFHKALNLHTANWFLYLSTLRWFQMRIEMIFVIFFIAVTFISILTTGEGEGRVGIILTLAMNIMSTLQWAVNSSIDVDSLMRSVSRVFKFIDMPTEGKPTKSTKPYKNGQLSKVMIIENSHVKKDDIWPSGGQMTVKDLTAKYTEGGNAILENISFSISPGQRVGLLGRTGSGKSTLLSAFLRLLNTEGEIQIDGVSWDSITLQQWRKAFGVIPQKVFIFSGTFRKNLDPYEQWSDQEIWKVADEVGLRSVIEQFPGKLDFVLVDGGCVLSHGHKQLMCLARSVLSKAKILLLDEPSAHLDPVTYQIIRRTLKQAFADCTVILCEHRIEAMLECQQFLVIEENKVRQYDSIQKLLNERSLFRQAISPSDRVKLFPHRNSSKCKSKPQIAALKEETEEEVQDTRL
test.method.notes: CFTR cell surface levels using HRP-tagged ΔF508-CFTR expressing CFBE cells, intrinsic corrector capacity
Type: cell-based
test.conditions: HRP-tagged ΔF508-CFTR CFBE41o- cells, compounds alone (intrinsic corrector capacity), 20 hours at 33° C.; positive control 3 μM corrector
From the text: Measuring CFTR Cell Surface Levels Using HRP-Tagged AF508-CFTR Expressing CFBE Cells The HRP-tagged AF508-CFTR cell assay measures the expression of CFTR-ΔF508 at the plasma membrane. […] When HRP-tagged AF508-CFTR is present at the plasma membrane, the HRP enzyme activity can be measured. The amount of CFTR-ΔF508 that can be rescued to the plasma membrane is correlated with the amount of functional enzyme that can be measured. […]
test.readout: % Activation (%)
Record the value in %, omitting the unit from your answer.

Known results for compounds:
{"compound": "Cc1ccc(-n2nc(C3CCC3)c3c(-c4ccc(N5CCOCC5)cc4)cc(C(=O)O)nc32)cc1F", "quantitative.readout": 180.03}
{"compound": "COCCCN1CCN(c2cc(C(=O)O)nc3c2c(C)nn3-c2ccccc2)CC1", "quantitative.readout": 39.85}

Now take the following compound into account.
Please report % Activation for the following compound: `CC(C)c1nn(-c2cccc(N(C)C)n2)c2nc(C(=O)O)cc(-c3ccc(N4CCOCC4)cc3)c12`
318.9
